Taken from the supplement of paper PMC10065799.

biological target: FGFR1 (UniProt P11362); test: phosphorylation enrichment, bacterial display (enrichment ratio); higher = better substrate or ligand; peptides without Tyr show the background;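 note: 11-residue human phosphosite peptides and single-mutation variants displayed on the E. coli surface, counted by deep sequencing, each peptide's frequency after selection divided by its frequency in the unselected input library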;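 note: frequency after pTyr selection over input frequency; kinase dosed for 20-30% of maximal phosphorylation in three min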
Sequence (P11362 whole entry, looked up): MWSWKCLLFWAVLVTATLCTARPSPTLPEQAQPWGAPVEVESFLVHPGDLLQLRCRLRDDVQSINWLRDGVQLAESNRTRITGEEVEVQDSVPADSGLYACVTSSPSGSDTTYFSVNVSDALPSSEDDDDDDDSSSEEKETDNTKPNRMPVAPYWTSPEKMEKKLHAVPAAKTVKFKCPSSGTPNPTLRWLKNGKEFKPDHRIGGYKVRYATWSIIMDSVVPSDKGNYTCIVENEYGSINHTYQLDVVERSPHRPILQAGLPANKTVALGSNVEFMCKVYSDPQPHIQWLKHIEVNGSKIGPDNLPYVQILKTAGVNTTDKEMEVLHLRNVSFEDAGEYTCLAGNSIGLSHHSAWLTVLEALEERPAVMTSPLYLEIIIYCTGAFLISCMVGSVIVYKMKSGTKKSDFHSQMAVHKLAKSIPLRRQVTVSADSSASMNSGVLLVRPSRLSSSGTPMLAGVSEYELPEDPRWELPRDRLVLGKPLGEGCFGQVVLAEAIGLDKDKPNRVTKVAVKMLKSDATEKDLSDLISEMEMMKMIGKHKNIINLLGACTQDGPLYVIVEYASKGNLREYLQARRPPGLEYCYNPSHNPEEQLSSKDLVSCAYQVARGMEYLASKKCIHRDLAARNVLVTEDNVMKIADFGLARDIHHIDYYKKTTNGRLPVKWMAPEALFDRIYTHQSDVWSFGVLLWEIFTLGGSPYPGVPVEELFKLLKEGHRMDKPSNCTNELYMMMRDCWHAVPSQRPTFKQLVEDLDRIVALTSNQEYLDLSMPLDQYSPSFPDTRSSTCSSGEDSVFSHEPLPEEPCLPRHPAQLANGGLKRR
Readout label: phosphorylation enrichment
Just the number, please, no unit attached.

Asked: Using the record for TSQSQYSSFRE [CCDC170_Y323_F324S] , report its phosphorylation enrichment.
Given back: 0.63

Asked: Proceed to LEISPYMLSGP [LRRK2_Y1718_R1723P]
Given back: 0.921

Asked: Proceed to VNYGAYINDFN [GLB1_Y488_K493N]
Given back: 0.451

Asked: Proceed to GQSKGYRPKLF [SIPA1L3_Y1376_YF]
Given back: 0.364

Asked: Proceed to QYNIQYSSSAA [ERBB2IP_Y981]
Given back: 0.693

Asked: Proceed to EEQKRYFNAMK [SCN5A_Y1494_K1493R_YF]
Given back: 0.49

Asked: Proceed to AGITAYQSCLQ [ADGRA2_Y377]
Given back: 0.562

Asked: Proceed to NTGGFYDLFGG [PTPN11_Y63_D61G_YF]
Given back: 0.478

Asked: Proceed to GGGFGYQKTKK [DDX18_Y643]
Given back: 0.371

Asked: Proceed to RFLRGYQQDAY [HLA-A_Y137_R138Q]
Given back: 0.548

Asked: Proceed to AIMSFYAALIN [RYR1_Y2426_D2431N]
Given back: 0.575

Asked: Proceed to QLCVSYPGGYT [PROS1_Y259_N258S]
Given back: 0.592

Asked: Proceed to CVGGFYGGCNE [CTSC_Y352_Y347C]
Given back: 0.439

Asked: Proceed to QMVGKYASSYM [AVPR2_Y124_M123K]
Given back: 0.29

---

biological target: EPHB1 (UniProt P54762); test: phosphorylation enrichment, bacterial display (enrichment ratio); higher = better substrate or ligand; peptides without Tyr show the background
Sequence (P54762 whole entry, looked up): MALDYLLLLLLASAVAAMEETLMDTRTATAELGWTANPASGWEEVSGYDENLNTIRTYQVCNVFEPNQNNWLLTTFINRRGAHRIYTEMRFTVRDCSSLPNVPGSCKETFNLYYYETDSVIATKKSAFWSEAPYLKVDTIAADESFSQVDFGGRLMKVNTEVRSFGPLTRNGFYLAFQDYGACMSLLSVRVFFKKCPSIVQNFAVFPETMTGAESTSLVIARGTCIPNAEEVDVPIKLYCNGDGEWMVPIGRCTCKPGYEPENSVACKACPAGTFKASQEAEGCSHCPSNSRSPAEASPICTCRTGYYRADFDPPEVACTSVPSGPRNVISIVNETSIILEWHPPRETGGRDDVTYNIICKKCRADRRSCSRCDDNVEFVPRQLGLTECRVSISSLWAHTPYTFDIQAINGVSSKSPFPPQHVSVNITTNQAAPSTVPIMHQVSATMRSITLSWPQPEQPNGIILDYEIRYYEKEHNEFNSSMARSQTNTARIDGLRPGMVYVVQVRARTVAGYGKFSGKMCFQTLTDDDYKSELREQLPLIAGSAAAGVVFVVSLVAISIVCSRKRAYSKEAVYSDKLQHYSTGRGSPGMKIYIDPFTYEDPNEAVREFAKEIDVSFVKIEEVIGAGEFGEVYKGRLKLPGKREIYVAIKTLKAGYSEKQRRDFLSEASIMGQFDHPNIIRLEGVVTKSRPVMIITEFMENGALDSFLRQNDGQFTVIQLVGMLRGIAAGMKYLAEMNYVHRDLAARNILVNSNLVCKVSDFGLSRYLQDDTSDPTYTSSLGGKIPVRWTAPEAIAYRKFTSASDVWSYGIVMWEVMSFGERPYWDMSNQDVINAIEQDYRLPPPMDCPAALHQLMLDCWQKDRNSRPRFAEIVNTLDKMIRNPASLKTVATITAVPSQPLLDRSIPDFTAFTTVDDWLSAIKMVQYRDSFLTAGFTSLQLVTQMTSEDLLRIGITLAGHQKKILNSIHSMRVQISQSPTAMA
// map phosphorylation enrichment to label using I (below 0.5), II (0.5 to below 0.7), III (0.7 or more)

Asked: Classify this sequence: GRVYVYRLSEQ [ITGAE_Y551]
Given back: II

Asked: Proceed to VTSLKYSTSPY [BRIP1_Y916]
Given back: II

Asked: Proceed to ETRWNYHFEVV [GCNT3_Y267_K266N]
Given back: III

Asked: Proceed to YENGEYIVRQG [PRKG1_Y247_I249V]
Given back: II

Asked: Proceed to ARMTNYGLPRY [TSPAN12_Y138]
Given back: I

Asked: Proceed to VEFAKYGSLRG [RET_Y809_YF]
Given back: I

Asked: Proceed to CTIIHYNYMCN [TP53_Y234_T231I]
Given back: III

Asked: Proceed to YQEPVYSVAFS [TBL1X_Y509_H504Y]
Given back: III

Asked: Proceed to RGDCTYAPLLG [AR_Y269_M268T]
Given back: III

Asked: Proceed to NTGLEYIKFTW [HRH1_Y386_D385E]
Given back: II

Asked: Proceed to CTTIHYNYMCK [TP53_Y234_N239K]
Given back: II

Asked: Proceed to ALAHKYHGGGG [HBB_Y146]
Given back: I

Asked: Proceed to KLKRSYSSRDI [USP8_Y717_P720R]
Given back: I

Asked: Proceed to ENQEIYQKAFD [KPNA1_Y493]
Given back: II

Asked: Proceed to VEYAKYGSLRG [RET_Y809]
Given back: I

Asked: Proceed to MGHVNYGAYIN [GLB1_Y485_R482H]
Given back: II

Asked: Proceed to GGTTMYPGIAD [ACTC1_Y308]
Given back: I

Asked: Proceed to MKNQKYGRIIM [HSD17B4_Y143_K140N]
Given back: I

Asked: Proceed to KILTHYKQPHT [KMT2D_Y5349_R5351Q]
Given back: I

Asked: Proceed to QAKRKYQEVSK [FES_Y156_A159V]
Given back: I

Asked: Proceed to LMIEEYLTKEP [BAG3_Y457_L462P]
Given back: III

Asked: Proceed to LTFHMYADPNI [SOS1_Y618_F623I_YF]
Given back: III

Asked: Proceed to NKYTTYLPWLP [C9orf24_Y126_R129W]
Given back: III

Asked: Proceed to DNAFQYMLTDR [MYH7_Y164_YF]
Given back: I

Asked: Proceed to KFVVVYFRETD [IL17RB_Y447_I451T_YF]
Given back: II

Asked: Proceed to QRPGLYDRPGA [HNRNPH2_Y210_P209L]
Given back: III

Asked: Proceed to VFDMLYQVANL [USP24_Y1087_L1089V]
Given back: III

Asked: Proceed to HTLIKYTDGDQ [PUS7L_Y94]
Given back: III

Asked: Proceed to IMICAYLLHRG [PTEN_Y138_V133I]
Given back: II

Asked: Proceed to EYFDGYWEYSV [ITGA2B_Y265_G267E]
Given back: III

Asked: Proceed to VMICAYLLHRG [PTEN_Y138]
Given back: II

Asked: Proceed to LSGFCYRLSDQ [PDCD6_Y124_G123C]
Given back: III

Asked: Proceed to SRVTQYERDFE [SNX1_Y463]
Given back: I

Asked: Proceed to FQLPFYNTVPS [BMPR1A_Y458_M460T_YF]
Given back: II

Asked: Proceed to KSIQLYDTPFE [SHB_Y297_G293S_YF]
Given back: III

Asked: Proceed to QGIFGYHHHMQ [UFSP2_Y287_Y290H_YF]
Given back: II

Asked: Proceed to TLLAFYMGNFS [GLB1_Y552_P549L]
Given back: III

Asked: Proceed to ASTHVYQIMNH [ITK_Y588]
Given back: III

Asked: Proceed to FRPPYYHRDCM [HGD_Y334_N337D]
Given back: II

Asked: Proceed to EKKDVYKTGEQ [CFH_Y1008_A1010T]
Given back: I

Asked: Proceed to LDAGEYCVPRG [BEX1_Y43]
Given back: III

Asked: Proceed to MHLRQYELLGG [GNAS_Y391]
Given back: III

Asked: Proceed to RDIHDYIKHLG [UNC13C_Y308]
Given back: II

Asked: Proceed to RRFVFYFSFLL [PTEN_Y177_YF]
Given back: II

Asked: Proceed to RPYRPYIIRGM [LRP5_Y1531]
Given back: II
